TEST SUMMARY: HS-72 PK in plasma, kidney and liver
Format: in vivo, mice
CONDITION DETAILS: 24 hours, IP 20 mg/Kg, n=3, SEM

SMILES TEXT: CCCn1c(NC(=O)[C@H]2CCCN(c3cnccn3)C2)nc2ccccc21
kidney concentration [µmol/g]: 0.02

###

TEST SUMMARY: HS-72 PK in plasma, kidney and liver
Assay type: in vivo, mice
CONDITION DETAILS: 5 minutes, IP 20 mg/Kg, n=3, SEM

SMILES TEXT: CCCn1c(NC(=O)[C@H]2CCCN(c3cnccn3)C2)nc2ccccc21
kidney concentration, µmol/g: 0.43
